- Tested on: DU-145
- Experimental Details: Cytotoxic activity screening, DU-145 cells
- Assay type: cell-based
- Condition Set: Homo sapiens, DU-145, DU-145 cells

Compound	IC50
COc1c(C)cc2c(c1O)[C@@H]1C3Cc4c(OC(C)=O)c(C)c5c(c4[C@H](CNC(=O)/C=C/c4ccccc4)N3[C@@H](C#N)[C@H](C2)N1C)OCO5 (stereo partly drawn)	0.0001 µM
CCCC(=O)N[C@@H](C)C(=O)NC[C@H]1c2c(c(OC(C)=O)c(C)c3c2OCO3)CC2[C@H]3c4c(cc(C)c(OC)c4O)C[C@@H]([C@H](C#N)N21)N3C (stereo partly drawn)	0.001 µM
CCCCCCCCCC(=O)NC[C@H]1c2c(c(OC(C)=O)c(C)c3c2OCO3)CC2[C@H]3c4c(cc(C)c(OC)c4O)C[C@@H]([C@H](C#N)N21)N3C (stereo partly drawn)	0.007 µM
